Value source: PubChem BioAssay (NCI)

Catalogue of compounds with associated growth
Tested on: RPMI-8226 leukemia
Measurement notes: NCI-60 one-dose screen, 48 h (100 = growth as untreated, 0 = no growth, -100 = all killed)
Protocol conditions: 10 µM unless noted
The panel holds about 83,000 compounds, 20% with a hit somewhere; the sample as a whole holds those more often.
Numbers only here, please. The scale is %.

INSERT INTO results (compound, attribute_measured, units, measured_result) VALUES
  ('O=C(/C=C/c1cccc([N+](=O)[O-])c1)c1ccc(Nc2nc(N3CCCCC3)nc(N3CCCCC3)n2)cc1', 'growth', '%', 7.95);

Consider the record given below.
Query: Entry c1ccc2c(Cc3csc4ccccc34)csc2c1 : reported growth = ?
Response: 94.8
